Target: Interleukin-1 receptor-associated kinase 4 (Homo sapiens, UniProt Q9NWZ3)
Sequence (Q9NWZ3 whole entry): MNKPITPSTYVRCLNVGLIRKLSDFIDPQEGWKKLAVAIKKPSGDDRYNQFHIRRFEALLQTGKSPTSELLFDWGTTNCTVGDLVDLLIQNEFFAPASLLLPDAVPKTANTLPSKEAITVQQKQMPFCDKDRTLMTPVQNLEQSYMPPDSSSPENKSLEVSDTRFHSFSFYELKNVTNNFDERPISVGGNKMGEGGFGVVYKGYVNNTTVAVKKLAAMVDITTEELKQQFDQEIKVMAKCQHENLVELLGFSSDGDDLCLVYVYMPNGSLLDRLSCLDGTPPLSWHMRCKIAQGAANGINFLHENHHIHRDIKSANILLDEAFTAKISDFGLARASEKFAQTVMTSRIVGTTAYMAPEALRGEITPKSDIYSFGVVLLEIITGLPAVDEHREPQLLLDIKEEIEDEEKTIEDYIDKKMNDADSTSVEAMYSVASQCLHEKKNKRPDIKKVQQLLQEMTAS
Assay: Inhibition of recombinant human full length his-tagged IRAK4 expressed in insect cells using KKARFSRFAGSSPSQSSMVAR as peptide substrate preincubated for 15 mins followed by substrate addition and measured after 2 hrs in presence of ATP by LC-MS/MS analysis
Property label: IC50 (nM)

>>> experimental_value("COc1cc2nn([C@H]3CC[C@H](n4ccnc4C(C)O)CC3)cc2cc1C(=O)Nc1cccn(C)c1=O (stereo partly specified)")
0.5

Sourced from ChEMBL document CHEMBL5390323
